The reported measurements were obtained from patent US10065990B2.

Biological target: HDAC1 (Homo sapiens, UniProt Q13547)
Sequence (Q13547 whole entry, species assumed): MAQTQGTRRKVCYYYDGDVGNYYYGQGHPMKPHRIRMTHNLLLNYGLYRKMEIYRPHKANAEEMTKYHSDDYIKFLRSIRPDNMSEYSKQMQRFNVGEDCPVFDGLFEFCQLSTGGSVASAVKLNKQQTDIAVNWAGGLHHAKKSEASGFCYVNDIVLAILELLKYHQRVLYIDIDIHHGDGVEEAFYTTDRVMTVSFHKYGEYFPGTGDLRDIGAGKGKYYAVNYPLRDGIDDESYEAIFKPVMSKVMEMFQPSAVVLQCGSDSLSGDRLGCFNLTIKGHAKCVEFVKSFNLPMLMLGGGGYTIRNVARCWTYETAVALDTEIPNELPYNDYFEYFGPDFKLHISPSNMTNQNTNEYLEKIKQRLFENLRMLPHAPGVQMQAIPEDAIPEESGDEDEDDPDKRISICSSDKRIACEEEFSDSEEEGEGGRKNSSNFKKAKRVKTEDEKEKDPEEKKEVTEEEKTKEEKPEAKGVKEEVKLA
Assay: HDAC biochemical activity measurement (fluorescent substrate deacetylation);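 also: fluorogenic acetyl-lysine substrate (20 µM) deacetylated by HDAC1, then developer releases fluorophore read at 360 nm excitation and 460 nm emission, inhibitor incubated 30 min at 37 °C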
Details: HDAC1; 37° C. 30 minutes; read-out: IC50 HDAC1
Decide using IC50 alone. Strictly below 70 nM: class 1. Equal to or above 70 nM: class 0.

Qu. Does the reported IC50 of C/C=C1\NC(=O)c2cccc(n2)CNC(=O)C[C@@H](/C=C/CCSC(=O)CCCCCCC)OC(=O)[C@H](CC)NC1=O stay below 70 nM?
Ans. class 1

Qu. Does the reported IC50 of C/C=C1\NC(=O)c2ccc(SC)c(n2)CNC(=O)C[C@@H](/C=C/CCSC(C)=O)OC(=O)[C@H](C)NC1=O stay below 70 nM?
Ans. class 1

Qu. Does the reported IC50 of C/C=C1\NC(=O)c2ccc(F)c(n2)CNC(=O)C[C@@H](/C=C/CCSC(C)=O)OC(=O)[C@H](CCCCN)NC1=O stay below 70 nM?
Ans. class 0

Qu. Does the reported IC50 of C/C=C1\NC(=O)c2cc(F)cc(n2)CNC(=O)C[C@@H](/C=C/CCSC(C)=O)OC(=O)[C@H](CCCCNC(=O)OCC2c3ccccc3-c3ccccc32)NC1=O stay below 70 nM?
Ans. class 1

Qu. Does the reported IC50 of C/C=C1\NC(=O)c2cccc(n2)CNC(=O)C[C@@H](/C=C/CCSC(=O)CCCCCCC)OC(=O)[C@H](Cc2ccccc2)NC1=O stay below 70 nM?
Ans. class 0

Qu. Does the reported IC50 of C/C=C1\NC(=O)c2ncc(SC)c(n2)CNC(=O)C[C@@H](/C=C/CCSC(C)=O)OC(=O)[C@H](C(C)C)NC1=O stay below 70 nM?
Ans. class 1

Qu. Does the reported IC50 of C/C=C1\NC(=O)c2nc(ccc2F)CNC(=O)C[C@@H](/C=C/CCSC(=O)CCCCCCC)OC(=O)[C@H](C)NC1=O stay below 70 nM?
Ans. class 0

Qu. Does the reported IC50 of CC(=O)SCC/C=C/[C@@H]1CC(=O)NCc2cccc(n2)C(=O)NC(=C(C)C)C(=O)N[C@@H](C(C)C)C(=O)O1 stay below 70 nM?
Ans. class 0

Qu. Does the reported IC50 of C/C=C1\NC(=O)c2cccc(n2)CNC(=O)C[C@@H](/C=C/CCSC(C)=O)OC(=O)[C@H](Cc2ccccc2)NC1=O stay below 70 nM?
Ans. class 0

Qu. Does the reported IC50 of C/C=C1\NC(=O)c2ccc(F)c(n2)CNC(=O)C[C@@H](/C=C/CCSC=O)OC(=O)[C@H](C(C)C)NC1=O stay below 70 nM?
Ans. class 0

Qu. Does the reported IC50 of C/C=C1\NC(=O)c2cccc(n2)CNC(=O)C[C@@H](/C=C/CCSC(=O)CCCCCCC)OC(=O)[C@H](CCSC)NC1=O stay below 70 nM?
Ans. class 1

Qu. Does the reported IC50 of C/C=C1\NC(=O)c2nc(cc(SC)n2)CNC(=O)C[C@@H](/C=C/CCSC(C)=O)OC(=O)[C@H](C(C)C)NC1=O stay below 70 nM?
Ans. class 0

Qu. Does the reported IC50 of C/C=C1\NC(=O)c2cc(F)cc(n2)CNC(=O)C[C@@H](/C=C/CCSC(=O)CCCCCCC)OC(=O)[C@H](Cc2ccccc2)NC1=O stay below 70 nM?
Ans. class 1

Qu. Does the reported IC50 of C/C=C1\NC(=O)c2nc(ccc2SC)CNC(=O)C[C@@H](/C=C/CCSC(=O)CCCCCCC)OC(=O)[C@H](C(C)C)NC1=O stay below 70 nM?
Ans. class 1

Qu. Does the reported IC50 of C/C=C1\NC(=O)c2cccc(n2)CNC(=O)C[C@@H](/C=C/CCSC(=O)CCCCCCC)OC(=O)CNC1=O stay below 70 nM?
Ans. class 1

Qu. Does the reported IC50 of C/C=C1\NC(=O)c2cccc(n2)CNC(=O)C[C@@H](/C=C/CCSC(=O)CCCCCCC)OC(=O)[C@H](C(C)C)NC1=O stay below 70 nM?
Ans. class 1

Qu. Does the reported IC50 of C/C=C1\NC(=O)c2ccc(SC)c(n2)CNC(=O)C[C@@H](/C=C/CCSC(=O)CCCCCCC)OC(=O)[C@H](Cc2ccccc2)NC1=O stay below 70 nM?
Ans. class 0

Qu. Does the reported IC50 of C/C=C1\NC(=O)c2cccc(n2)CNC(=O)C[C@@H](/C=C/CCSC(=O)CC)OC(=O)[C@H](C(C)C)NC1=O stay below 70 nM?
Ans. class 0

Qu. Does the reported IC50 of C/C=C1\NC(=O)c2nc(ccc2F)CNC(=O)C[C@@H](/C=C/CCSC=O)OC(=O)[C@H](C(C)C)NC1=O stay below 70 nM?
Ans. class 1

Qu. Does the reported IC50 of C/C=C1\NC(=O)c2nc(ccc2F)CCNC(=O)C[C@@H](/C=C/CCSC(C)=O)OC(=O)[C@H](C(C)C)NC1=O stay below 70 nM?
Ans. class 1

Qu. Does the reported IC50 of C/C=C1\NC(=O)c2cccc(n2)CNC(=O)C[C@@H](/C=C/CCSC(C)=O)OC(=O)[C@H](Cc2cccc3ccccc23)NC1=O stay below 70 nM?
Ans. class 0

Qu. Does the reported IC50 of C/C=C1\NC(=O)c2cccc(n2)CNC(=O)C[C@@H](/C=C/CCSC(=O)CCCCCC)OC(=O)[C@H](C(C)C)NC1=O stay below 70 nM?
Ans. class 0

Qu. Does the reported IC50 of C/C=C1\NC(=O)c2cc(F)cc(n2)CNC(=O)C[C@@H](/C=C/CCSC(C)=O)OC(=O)[C@H](Cc2ccc(O)cc2)NC1=O stay below 70 nM?
Ans. class 0
